- measured-on: T1, purified recombinant RSV-Ga protein (Sino Biologics) (Respiratory Syncytial Virus subtype A, …, UniProt P03423 64-298)
- T1 sequence: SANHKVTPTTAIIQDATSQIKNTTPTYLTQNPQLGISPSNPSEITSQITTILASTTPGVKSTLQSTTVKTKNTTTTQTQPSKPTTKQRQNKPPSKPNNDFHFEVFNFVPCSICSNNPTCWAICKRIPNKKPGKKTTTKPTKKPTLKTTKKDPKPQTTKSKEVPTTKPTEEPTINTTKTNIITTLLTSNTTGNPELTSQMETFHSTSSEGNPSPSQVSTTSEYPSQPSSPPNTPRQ
- assay-summary: SPR (IBIS MX96), IgG captured on anti-human IgG, RSV Ga injected
pKd: −log10 of the molar value.
Reported values of pKd for individual entries

[
  {
    "binder": "AT40 (antibody, V domains shown) VH: QVQLVESGGGVVQPGMSHRLSCAASTLIFDRHALHWVRQAPGAGLEWVAILSYDGTTDYYADSVKGRFTVSRDTSKNTVFLQMNGLRPQDTAVYYCARGRALDDFADYGGYYFDYWGQGILVTVSS VL: DIQMTQSPSSVSASVGDKVTITCRASQGISTWLAWYQQKPGKAPALLIYSASRLQSGVPSRFSGSGSGTDFTLTISSLQPEDYATYYCQQANTFPFTFGPGTKVDIKR",
    "pKd": 9.70
  },
  {
    "binder": "AT49 (antibody, V domains shown) VH: QVLLVQSGAEIKKPGSSVKISCKASGGTFSSLALNWVRQAPGQGLQWMGGIIPLFGTQNYAQKFQGRVTITADESTSTAYMELSGLRPEDTAVYYCALFLWFGDQTSDDGFDVWGQGTVVTVSS VL: DIVMTQSPLSLTVTPGEPASISCRSSQSLLHGNGYKYLHWYLQKPGQSPQLLIYLGSNRASGVPARFSGSGSDTDFTLKISTVETEDVGVYYCMQALQSPTFGQGTKVEIKR",
    "pKd": 10.00
  },
  {
    "binder": "AT44 (antibody, V domains shown) VH: QVQLQASGPGLVKPSETLSLTCNVSGYSVSSGHYWAWVRQSPGKGLEWIGGIHHSGSTYTNPPLKSRVSISIDTSKNQFSLRLTSVTAADTAVYFCARDLYDLSTGPFWFDPWGQGTLVTVSS VL: EIVMTQSPATLSVSPGERVTLSCRASQSVSTKVVWYQQKFGQAPRLLIYGASTRATGIPVRFSGSGSGTEFTLTISSLQSEDLAVYFCQQYNKWPMYTFGQGTKLEIKR",
    "pKd": 10.00
  },
  {
    "binder": "AT32 (antibody, V domains shown) VH: QVQLVQSGAEMKKPGASVKVSCQVAGYTLTELSIHWVRQTPGNGLEWMGGFEPEDGEYIYPQKSQGRVTMTEDTSTGTAYMELRSLRSDDTAVYYCAAEARYCDNSRCSPNFDHWGQGTLVAVSS VL: DIVMTQSPDSLAVSLGERATFSCKSSQSVLYDSNNKNYLAWYQQRPGQPPKLLIYWASTRESGVPDRFSGSGSGTDFTLTISSLQPEDVAVYYCQQYYDPLITFGQGTRLEIKR",
    "pKd": 9.22
  }
]

Values were extracted from patent US20150004155A1.
